experiment_summary: yeast display, Sf9 membrane polyspecificity reagent, FACS + sequencing; frameworks hold sequencing errors
measure_name: polyreactivity (PSR sort gate)

Example cases with answers are listed next.
seq_text=QVQLVESGGGLVQAGGSLRLSCAASGRIFRGNAMGWYRQAPGKERELVATITKRGGSTYYADSVKGRFTISRDNAKNTVYLQMNSLKPEDTAVYYCNTRTYGYLTQKYDYWGQGTQVTVSS result="high polyreactivity"
seq_text=QVQLVESGGGLVQAGGSLRLSCAASGSIFYNAMGGYRQAPGKERELVAGISSGTSTYYADSVKGRFTISRDNAKNTVYLLMNSLKPEDTEVYYCATRWSYRYGYWGQGTQVTVSS result="high polyreactivity"
seq_text=QVQLVESGGGLVQAGGSLRLSCAASGFTFRHYAMGWYRQAPGKERELVARIRGGGVSTYYADSVKGRFTISRDNAKNTVYLQMNSLKPEDTAVYYCNAVYESWWGDYDYWGQGTQVTVSS result="high polyreactivity"
seq_text=QVQLVESGGGLVQAGGSLRLSCAASGSIFYSYAMGWYRQAPGKERELVAAITSRTGNTYYADSVKGRFTISRDNAKNTVYLQMNSLKPEDTAVYYCAAKLVNALLHYRIWNHNNYWGQGTQVSVSS result="low polyreactivity"
seq_text=QVQLVDSGGGLVQAGGSLRLSCAAYGSTFRGYAMGWYRPAPGKERELVAAISWSGGITYYADSVKGRFTISRDNAKNTVYLQMNRLKPEDTAVYYCAAVWDQVSDRYMLEYCGQGTQVTVSS result="high polyreactivity"
seq_text=QVQLVESGGGLVHAGGSLRLSCAASGFTFFKYAKGWYRQAPGKERELVATISIDGITNYADSVKGRFTISRHNAKNTVYLQMNSLKPEDTAVYYCHARSLYQQLGYWGQGTQVTVSS result="low polyreactivity"
seq_text=QVQLVESGGGLVQAGGSLRLSCAASGLILVYYAMGWYRQAPGKERELVAAITPGGSTKYADSVKGRFTISRDNAKNTVYFQMNSLKPEDTAVYYCAVDGDWHEPGNYIYEYDYWGQGTQVTVSS result="low polyreactivity"
seq_text=QVQLVESGGGLVQAGGSLRLSCAASGRTFYSYAMGWYRQAPGKERELVAAISFRDGRTYYADSVKGRFTISRDNAKNTVYLQMNSLKPEDTAVYYCAAQLSHYYSLYYYWGQGTQVTVSS result="high polyreactivity"

Param item = QVQLVESGGGLDQAGGSLRLSCAASGSTFGTYAMGWYRQAPGKEWQLVADITGSGGSTYYADSVKGRFTISRDNAKNTVYLQMNSLKPEDTAVYYCAGEYGLGDDTAYGYWGQGTQGTVSS ; retrieve measured polyreactivity (PSR sort gate).
low polyreactivity

Param item = QVQLVESGGGLVQAGGSLRFTCAASGRIFLGYAMGWYRQAAGKEREFVAAINSVASTNYADSVKGRFTISRDNAKNTVYLQMNSLKPEDTAVYYCAAVYFLVQSDLPAYDYWGQGTQVTVSS ; retrieve measured polyreactivity (PSR sort gate).
low polyreactivity

Param item = QVQLVESGGGLVQAGGSLRLSCAASGSIFRWNSMGGYRQAPGKERELVASITSGGSTYYADSVKGRFTISRDNAKNTVYLQMNSLKPEDTAVYYCAAARYPGRKFDYWGQGTQVTVSS ; retrieve measured polyreactivity (PSR sort gate).
high polyreactivity

Param item = QVQLVESGGGLVQAGGSLRLSCAASGLIFAYYTMGWYRQAPGKERELVAAITSGVRTYYADSVKGRFTISRDNAKNTVYLQMNSLKPEDTAVYYCAAGLSGSTQATIFWGYYYWGQGTQVTVSS ; retrieve measured polyreactivity (PSR sort gate).
low polyreactivity

Param item = QVQLVESGGGLVQAGGSLRLSSAASGFTLDWYVIGWYRKAPWKERELVAAISSSGGRTYYADSVKGRFTISRDNAKNTVYLQMNSLKPEDTAVYYCAARNIYGGYPYGYDYWGQGTQVTVSS ; retrieve measured polyreactivity (PSR sort gate).
high polyreactivity

Param item = QVQLVESGGGLVQAGGSLRISCAASGFIFRRYAMGWYRQAPGKERELVAAIRTNSGSTYYADSVKGRFTISRDNAKNTVYLQMNSLKPEDTAVYYCATGQVYRTVSWLYNYWGQGTQVTVSS ; retrieve measured polyreactivity (PSR sort gate).
high polyreactivity

Param item = QVQLVESGGGLVQAGGSLRLSCAASGTIFSDYAMGWYRQAPGKERELVATITSRGGSTHYADSVKGRFTISRDNAKNTVYLQMNSLKPEDTAVYYCIVRRLYVYTITSGDVDYDYWGQGTQVTVSS ; retrieve measured polyreactivity (PSR sort gate).
low polyreactivity
